# Tested on: SpTbr T-box DNA-binding domain (GST fusion);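 also: protein at 200 nM in PBS on universal double-stranded arrays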
# Sequence: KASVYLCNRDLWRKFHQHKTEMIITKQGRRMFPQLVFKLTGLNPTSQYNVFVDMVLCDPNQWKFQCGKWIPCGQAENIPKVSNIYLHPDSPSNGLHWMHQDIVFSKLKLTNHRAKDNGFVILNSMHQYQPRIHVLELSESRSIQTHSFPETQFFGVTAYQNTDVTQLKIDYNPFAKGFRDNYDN
# protocol text: PBM E-score of 8-mer (E-score (dimensionless, -0.5 to 0.5)); Tbr is Tbrain of the sea star Patiria miniata (Pm) or the sea urchin Strongylocentrotus purpuratus (Sp); higher = stronger binding preference
# run parameters: the construct has about 5 more residues each side
In all, about 33,000 sequences were measured (“E-score (dimensionless, -0.5 to 0.5)”: median about -0.046, highest 2% from about 0.36 on). The sample as a whole holds a higher share of the highest values than the screen did.
Given measured PBM E-score of 8-mer, output Y if it is greater than or equal to 0.1 and N if not.

Check out these entries, answers already filled in.
[[record]]
sequence_data = "ACTGTGAG"
group = "Y"

[[record]]
sequence_data = "TGCGAACA"
group = "Y"

[[record]]
sequence_data = "CACTCTCC"
group = "N"

[[record]]
sequence_data = "AGCAGATA"
group = "N"

[[record]]
sequence_data = "GCAAACCC"
group = "N"


QUERY: Hi, just wondering whether CCTCCTAA shows PBM E-score of 8-mer of 0.1 or higher.
RESULT: N

QUERY: Hi, just wondering whether CGCACTGC shows PBM E-score of 8-mer of 0.1 or higher.
RESULT: Y

QUERY: Hi, just wondering whether ATTGCGAA shows PBM E-score of 8-mer of 0.1 or higher.
RESULT: Y

QUERY: Hi, just wondering whether TGCGAAAA shows PBM E-score of 8-mer of 0.1 or higher.
RESULT: Y

QUERY: Hi, just wondering whether CAGATAGA shows PBM E-score of 8-mer of 0.1 or higher.
RESULT: N

QUERY: Hi, just wondering whether AGTGCGAA shows PBM E-score of 8-mer of 0.1 or higher.
RESULT: Y
